assay.target: T1, recombinant human IL4Rα-his protein (in house made) (human, UniProt P24394 26-232, limits assumed)
T1 construct: also called Human IL4Ra-his
assay.procedure: competitive ELISA: antibody mixed with biotin human IL4Rα-his, competitor plate-coated Benchmark
measured.property: IC50 (nM)
Write the value in nM as a bare number.

(Q) Using the record for mouse antibody C2C1A1A1 (antibody, V domains shown, Mouse hybridoma mAb; also called Mouse C2C1A1A1) VH: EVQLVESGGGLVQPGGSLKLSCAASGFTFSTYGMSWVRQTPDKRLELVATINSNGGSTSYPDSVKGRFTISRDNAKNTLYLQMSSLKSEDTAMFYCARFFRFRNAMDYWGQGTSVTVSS VL: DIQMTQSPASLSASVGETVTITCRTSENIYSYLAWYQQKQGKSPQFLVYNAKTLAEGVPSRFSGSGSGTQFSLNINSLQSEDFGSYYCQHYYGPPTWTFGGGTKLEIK , report its IC50.
(A) 0.0383
